B1: Zinc finger homeobox protein 3, residues 2244 to 2299; numbered along this chain, Q15911 (parent)
chain: SSRTRFTDYQLRVLQDFFDANAYPKDDEFEQLSNLLNLPTRVIVVWFQNARQKARK

variants of: B1; assay: abundance fitness (aPCA) (normalised: wild type 0, dead -1); higher = more abundant; growth selection in yeast, the domain comes from the species named; conditions: Homo sapiens
Experimental Endpoint: abundance fitness
Output spec: single numeric token, no unit.

Name the recorded abundance fitness of the variant listed here: `R5G`
0.19

Name the recorded abundance fitness of the variant listed here: `L11G`
-0.171

Name the recorded abundance fitness of the variant listed here: `S2C`
-0.118

Name the recorded abundance fitness of the variant listed here: `P24G`
-1.24

Name the recorded abundance fitness of the variant listed here: `T4G`
-0.394

Name the recorded abundance fitness of the variant listed here: `D8N`
-0.237

Name the recorded abundance fitness of the variant listed here: `L14K`
-0.948

Name the recorded abundance fitness of the variant listed here: `S1A`
-0.047

Name the recorded abundance fitness of the variant listed here: `D26C`
-0.506

Name the recorded abundance fitness of the variant listed here: `L11A`
-0.181

Name the recorded abundance fitness of the variant listed here: `D26S`
-0.219

Name the recorded abundance fitness of the variant listed here: `S33V`
-0.452

Name the recorded abundance fitness of the variant listed here: `N37V`
-0.117

Name the recorded abundance fitness of the variant listed here: `R3S`
0.386

Name the recorded abundance fitness of the variant listed here: `P24A`
-0.555

Name the recorded abundance fitness of the variant listed here: `F18S`
-0.349

Name the recorded abundance fitness of the variant listed here: `R12I`
-0.312

Name the recorded abundance fitness of the variant listed here: `N21E`
-0.262

Name the recorded abundance fitness of the variant listed here: `Q31F`
0.162

Name the recorded abundance fitness of the variant listed here: `D19M`
0.169

Name the recorded abundance fitness of the variant listed here: `Y9E`
-0.007

Name the recorded abundance fitness of the variant listed here: `Q10P`
-0.923

Name the recorded abundance fitness of the variant listed here: `L14V`
-0.493

Name the recorded abundance fitness of the variant listed here: `F17T`
-0.074

Name the recorded abundance fitness of the variant listed here: `L35H`
-0.088

Name the recorded abundance fitness of the variant listed here: `S33Y`
-0.871

Name the recorded abundance fitness of the variant listed here: `D19R`
-0.012

Name the recorded abundance fitness of the variant listed here: `A20S`
-0.065

Name the recorded abundance fitness of the variant listed here: `N21Q`
-0.26

Name the recorded abundance fitness of the variant listed here: `L35G`
-0.06

Name the recorded abundance fitness of the variant listed here: `Y9T`
-0.135

Name the recorded abundance fitness of the variant listed here: `F29T`
-0.27

Name the recorded abundance fitness of the variant listed here: `A22G`
0.015

Name the recorded abundance fitness of the variant listed here: `S2H`
-0.043

Name the recorded abundance fitness of the variant listed here: `Q10N`
-0.76

Name the recorded abundance fitness of the variant listed here: `L38G`
-0.884

Name the recorded abundance fitness of the variant listed here: `D16H`
0.033

Name the recorded abundance fitness of the variant listed here: `N34Y`
-0.161

Name the recorded abundance fitness of the variant listed here: `D19A`
-0.024

Name the recorded abundance fitness of the variant listed here: `Q10A`
-0.649

Name the recorded abundance fitness of the variant listed here: `A20G`
-0.13

Name the recorded abundance fitness of the variant listed here: `E28K`
-0.422

Name the recorded abundance fitness of the variant listed here: `V13G`
-0.339

Name the recorded abundance fitness of the variant listed here: `Q15P`
-0.889

Name the recorded abundance fitness of the variant listed here: `Q31W`
-0.279

Name the recorded abundance fitness of the variant listed here: `S2Q`
-0.093

Name the recorded abundance fitness of the variant listed here: `L14Q`
-0.549

Name the recorded abundance fitness of the variant listed here: `A22M`
0.106

Name the recorded abundance fitness of the variant listed here: `F17D`
-0.876

Name the recorded abundance fitness of the variant listed here: `R3C`
0.467

Name the recorded abundance fitness of the variant listed here: `D19T`
0.046

Name the recorded abundance fitness of the variant listed here: `N21L`
-0.912

Name the recorded abundance fitness of the variant listed here: `D26M`
0.018

Name the recorded abundance fitness of the variant listed here: `D26F`
-0.332

Name the recorded abundance fitness of the variant listed here: `S2E`
0.182

Name the recorded abundance fitness of the variant listed here: `T4W`
-0.656

Name the recorded abundance fitness of the variant listed here: `F29N`
-0.622

Name the recorded abundance fitness of the variant listed here: `F17A`
0.17

Name the recorded abundance fitness of the variant listed here: `A22E`
0.082

Name the recorded abundance fitness of the variant listed here: `L11Y`
-0.404

Name the recorded abundance fitness of the variant listed here: `Y9D`
0.002

Name the recorded abundance fitness of the variant listed here: `V13T`
-0.116

Name the recorded abundance fitness of the variant listed here: `S2I`
0.393

Name the recorded abundance fitness of the variant listed here: `S33H`
-0.085

Name the recorded abundance fitness of the variant listed here: `Y23K`
-0.13

Name the recorded abundance fitness of the variant listed here: `R3P`
0.17

Name the recorded abundance fitness of the variant listed here: `L32H`
-0.878

Name the recorded abundance fitness of the variant listed here: `R12D`
0.024

Name the recorded abundance fitness of the variant listed here: `S1G`
0.256

Name the recorded abundance fitness of the variant listed here: `K25T`
-0.161

Name the recorded abundance fitness of the variant listed here: `T7H`
-0.665

Name the recorded abundance fitness of the variant listed here: `Y23L`
-0.161

Name the recorded abundance fitness of the variant listed here: `R5Q`
0.092

Name the recorded abundance fitness of the variant listed here: `Q15F`
-0.299

Name the recorded abundance fitness of the variant listed here: `F17P`
-1.08

Name the recorded abundance fitness of the variant listed here: `Y23D`
-0.018
